test: Pharmacokinetic study in rats after oral administration of GR extract (UHPLC-MS/MS of plasma)
Format: in vivo, Sprague-Dawley rats
assayContext: male, Sprague-Dawley, po; rat plasma, GR extract 9.6 g/kg intragastric gavage, mean ± SD, n = 6
parameterMeasured: AUC(0-inf)

Use these answered entries as a reference point.
{"columns": ["molecule", "AUC(0-inf)"],
 "data": [
  ["OCc1ccc(O)cc1 [p-Hydroxybenzyl alcohol]", "674000 ng·h/mL"],
  ["NC(=O)c1cccnc1 [Nicotinamide]", "59 ng·h/mL"],
  ["O=C(CC(O)(CC(=O)OCc1ccc(O[C@@H]2O[C@H](CO)[C@@H](O)[C@H](O)[C@H]2O)cc1)C(=O)OCc1ccc(O[C@@H]2O[C@H](CO)[C@@H](O)[C@H](O)[C@H]2O)cc1)OCc1ccc(O[C@@H]2O[C@H](CO)[C@@H](O)[C@H](O)[C@H]2O)cc1", "572 ng·h/mL"],
  ["O=C(O)c1ccc(O)cc1 [p-Hydroxybenzoic acid]", "1600 ng·h/mL"],
  ["O=C(O)CC(O)(CC(=O)OCc1ccc(O[C@@H]2O[C@H](CO)[C@@H](O)[C@H](O)[C@H]2O)cc1)C(=O)O (some centres unmarked)", "13100 ng·h/mL"],
  ["O=C(O)CC(O)(CC(=O)OCc1ccc(O[C@@H]2O[C@H](CO)[C@@H](O)[C@H](O)[C@H]2O)cc1)C(=O)OCc1ccc(O[C@@H]2O[C@H](CO)[C@@H](O)[C@H](O)[C@H]2O)cc1 (some centres unmarked)", "460 ng·h/mL"]
]}

What value of AUC(0-inf) has been recorded for this entry: O=Cc1ccc(O)cc1 [p-Hydroxybenzaldehyde]
59.1 ng·h/mL

What value of AUC(0-inf) has been recorded for this entry: OCc1ccc(O[C@@H]2O[C@H](CO)[C@@H](O)[C@H](O)[C@H]2O)cc1
145000 ng·h/mL

----------
test: Pharmacokinetic study in rats after oral administration of GR extract (UHPLC-MS/MS of plasma)
Format: in vivo, Sprague-Dawley rats
assayContext: male, Sprague-Dawley, po; rat plasma, GR extract 9.6 g/kg intragastric gavage, mean ± SD, n = 6
Threshold rule: Cmax greater than or equal to 200 ng/mL is Met; below that, Not met.

These recorded examples may help you get a feel for the data.
{"columns": ["compound", "classAssignment"],
 "data": [
  ["OCc1ccc(O[C@@H]2O[C@H](CO)[C@@H](O)[C@H](O)[C@H]2O)cc1", "Met"],
  ["O=C(O)CC(O)(CC(=O)OCc1ccc(O[C@@H]2O[C@H](CO)[C@@H](O)[C@H](O)[C@H]2O)cc1)C(=O)O (some centres unmarked)", "Met"],
  ["O=C(CC(O)(CC(=O)OCc1ccc(O[C@@H]2O[C@H](CO)[C@@H](O)[C@H](O)[C@H]2O)cc1)C(=O)OCc1ccc(O[C@@H]2O[C@H](CO)[C@@H](O)[C@H](O)[C@H]2O)cc1)OCc1ccc(O[C@@H]2O[C@H](CO)[C@@H](O)[C@H](O)[C@H]2O)cc1", "Met"],
  ["O=C(O)c1ccc(O)cc1 [p-Hydroxybenzoic acid]", "Met"],
  ["OCc1ccc(O)cc1 [p-Hydroxybenzyl alcohol]", "Met"]
]}

Does Cmax meet or surpass 200 ng/mL for O=C(O)CC(O)(CC(=O)OCc1ccc(O[C@@H]2O[C@H](CO)[C@@H](O)[C@H](O)[C@H]2O)cc1)C(=O)OCc1ccc(O[C@@H]2O[C@H](CO)[C@@H](O)[C@H](O)[C@H]2O)cc1 (some centres unmarked) ?
Met

Does Cmax meet or surpass 200 ng/mL for NC(=O)c1cccnc1 [Nicotinamide] ?
Not met

Does Cmax meet or surpass 200 ng/mL for O=Cc1ccc(O)cc1 [p-Hydroxybenzaldehyde] ?
Not met

----------
test: Pharmacokinetic study in rats after oral administration of GR extract (UHPLC-MS/MS of plasma)
Format: in vivo, Sprague-Dawley rats
assayContext: male, Sprague-Dawley, po; rat plasma, GR extract 9.6 g/kg intragastric gavage, mean ± SD, n = 6; read-out: λz (terminal elimination rate constant) (converted)
// values below are reported k el
Kindly answer with a numeric value in s⁻¹, unit omitted.

What value of k el has been recorded for this entry: OCc1ccc(O)cc1 [p-Hydroxybenzyl alcohol]
3.89e-05

What value of k el has been recorded for this entry: O=C(O)CC(O)(CC(=O)OCc1ccc(O[C@@H]2O[C@H](CO)[C@@H](O)[C@H](O)[C@H]2O)cc1)C(=O)O (some centres unmarked) [Parishin E]
1.39e-05

What value of k el has been recorded for this entry: O=C(O)c1ccc(O)cc1 [p-Hydroxybenzoic acid]
4.44e-05

What value of k el has been recorded for this entry: NC(=O)c1cccnc1 [Nicotinamide]
6.11e-05

What value of k el has been recorded for this entry: OCc1ccc(O[C@@H]2O[C@H](CO)[C@@H](O)[C@H](O)[C@H]2O)cc1 [Gastrodin]
1.67e-05

----------
// values below are reported log10 of AUC(0-t)
test: Pharmacokinetic study in rats after oral administration of GR extract (UHPLC-MS/MS of plasma)
Format: in vivo, Sprague-Dawley rats
assayContext: male, Sprague-Dawley, po; rat plasma, GR extract 9.6 g/kg intragastric gavage, mean ± SD, n = 6
# values: log10(AUC(0-t)), units ng·h/mL

Use these answered entries as a reference point.
{"columns": ["molecule", "log10 of AUC(0-t)"],
 "data": [
  ["O=C(CC(O)(CC(=O)OCc1ccc(O[C@@H]2O[C@H](CO)[C@@H](O)[C@H](O)[C@H]2O)cc1)C(=O)OCc1ccc(O[C@@H]2O[C@H](CO)[C@@H](O)[C@H](O)[C@H]2O)cc1)OCc1ccc(O[C@@H]2O[C@H](CO)[C@@H](O)[C@H](O)[C@H]2O)cc1", 2.73],
  ["O=C(O)CC(O)(CC(=O)OCc1ccc(O[C@@H]2O[C@H](CO)[C@@H](O)[C@H](O)[C@H]2O)cc1)C(=O)OCc1ccc(O[C@@H]2O[C@H](CO)[C@@H](O)[C@H](O)[C@H]2O)cc1 (some centres unmarked)", 2.66],
  ["O=Cc1ccc(O)cc1 [p-Hydroxybenzaldehyde]", 1.75],
  ["O=C(O)CC(O)(CC(=O)OCc1ccc(O[C@@H]2O[C@H](CO)[C@@H](O)[C@H](O)[C@H]2O)cc1)C(=O)O (some centres unmarked)", 4.06],
  ["O=C(O)c1ccc(O)cc1 [p-Hydroxybenzoic acid]", 3.20]
]}

What value of log10 of AUC(0-t) has been recorded for this entry: OCc1ccc(O)cc1 [p-Hydroxybenzyl alcohol]
5.83

What value of log10 of AUC(0-t) has been recorded for this entry: OCc1ccc(O[C@@H]2O[C@H](CO)[C@@H](O)[C@H](O)[C@H]2O)cc1
5.16

What value of log10 of AUC(0-t) has been recorded for this entry: NC(=O)c1cccnc1 [Nicotinamide]
1.77

----------
test: Pharmacokinetic study in rats after oral administration of GR extract (UHPLC-MS/MS of plasma)
Format: in vivo, Sprague-Dawley rats
assayContext: male, Sprague-Dawley, rat, plasma, po, 9.6 g/kg, rat plasma, GR extract 9.6 g/kg intragastric gavage, mean ± SD, n = 6
// values below are reported half-life
Kindly answer with a numeric value in min, unit omitted.

{"columns": ["molecule", "testValue"],
 "data": [
  ["OCc1ccc(O)cc1 [p-Hydroxybenzyl alcohol]", 319],
  ["O=C(CC(O)(CC(=O)OCc1ccc(O[C@@H]2O[C@H](CO)[C@@H](O)[C@H](O)[C@H]2O)cc1)C(=O)OCc1ccc(O[C@@H]2O[C@H](CO)[C@@H](O)[C@H](O)[C@H]2O)cc1)OCc1ccc(O[C@@H]2O[C@H](CO)[C@@H](O)[C@H](O)[C@H]2O)cc1", 217],
  ["O=Cc1ccc(O)cc1 [p-Hydroxybenzaldehyde]", 352],
  ["O=C(O)CC(O)(CC(=O)OCc1ccc(O[C@@H]2O[C@H](CO)[C@@H](O)[C@H](O)[C@H]2O)cc1)C(=O)OCc1ccc(O[C@@H]2O[C@H](CO)[C@@H](O)[C@H](O)[C@H]2O)cc1 (some centres unmarked)", 160],
  ["NC(=O)c1cccnc1 [Nicotinamide]", 164]
]}

What value of half-life has been recorded for this entry: O=C(O)c1ccc(O)cc1 [p-Hydroxybenzoic acid]
373

----------
test: Pharmacokinetic study in rats after oral administration of GR extract (UHPLC-MS/MS of plasma)
Format: in vivo, Sprague-Dawley rats
assayContext: male, Sprague-Dawley, po; rat plasma, GR extract 9.6 g/kg intragastric gavage, mean ± SD, n = 6
Labelling: Tmax reported below 40 min becomes YES; at or above becomes NO.

These recorded examples may help you get a feel for the data.
{"columns": ["molecule", "classAssignment"],
 "data": [
  ["O=C(CC(O)(CC(=O)OCc1ccc(O[C@@H]2O[C@H](CO)[C@@H](O)[C@H](O)[C@H]2O)cc1)C(=O)OCc1ccc(O[C@@H]2O[C@H](CO)[C@@H](O)[C@H](O)[C@H]2O)cc1)OCc1ccc(O[C@@H]2O[C@H](CO)[C@@H](O)[C@H](O)[C@H]2O)cc1 [ParishinA, Parishin A]", "YES"],
  ["O=C(O)CC(O)(CC(=O)OCc1ccc(O[C@@H]2O[C@H](CO)[C@@H](O)[C@H](O)[C@H]2O)cc1)C(=O)OCc1ccc(O[C@@H]2O[C@H](CO)[C@@H](O)[C@H](O)[C@H]2O)cc1 (some centres unmarked) [Parishin B]", "YES"],
  ["OCc1ccc(O)cc1 [p-Hydroxybenzyl alcohol]", "NO"],
  ["O=Cc1ccc(O)cc1 [p-Hydroxybenzaldehyde]", "YES"]
]}

Quick check: Tmax of O=C(O)CC(O)(CC(=O)OCc1ccc(O[C@@H]2O[C@H](CO)[C@@H](O)[C@H](O)[C@H]2O)cc1)C(=O)O (some centres unmarked) [Parishin E] under 40 min?
NO

Quick check: Tmax of OCc1ccc(O[C@@H]2O[C@H](CO)[C@@H](O)[C@H](O)[C@H]2O)cc1 [Gastrodin] under 40 min?
NO

Quick check: Tmax of NC(=O)c1cccnc1 [Nicotinamide] under 40 min?
YES

Quick check: Tmax of O=C(O)c1ccc(O)cc1 [p-Hydroxybenzoic acid] under 40 min?
YES

Data provenance is paper PMC12655633.
